Assignment: determine reported composite z-score for the given compounds.
target: Torsin-1A-interacting protein 1 (Homo sapiens) (UniProt Q5JTV8); assay: LAP1 binders from COS7 cell lysate, primary screen, small-molecule microarray, 635/667 nm fluorescence (AID 1116); settings: COS7-hLAP1 lysate binding, 635 nm fluorescence, higher = more signal
Sequence (Q5JTV8 whole entry, looked up): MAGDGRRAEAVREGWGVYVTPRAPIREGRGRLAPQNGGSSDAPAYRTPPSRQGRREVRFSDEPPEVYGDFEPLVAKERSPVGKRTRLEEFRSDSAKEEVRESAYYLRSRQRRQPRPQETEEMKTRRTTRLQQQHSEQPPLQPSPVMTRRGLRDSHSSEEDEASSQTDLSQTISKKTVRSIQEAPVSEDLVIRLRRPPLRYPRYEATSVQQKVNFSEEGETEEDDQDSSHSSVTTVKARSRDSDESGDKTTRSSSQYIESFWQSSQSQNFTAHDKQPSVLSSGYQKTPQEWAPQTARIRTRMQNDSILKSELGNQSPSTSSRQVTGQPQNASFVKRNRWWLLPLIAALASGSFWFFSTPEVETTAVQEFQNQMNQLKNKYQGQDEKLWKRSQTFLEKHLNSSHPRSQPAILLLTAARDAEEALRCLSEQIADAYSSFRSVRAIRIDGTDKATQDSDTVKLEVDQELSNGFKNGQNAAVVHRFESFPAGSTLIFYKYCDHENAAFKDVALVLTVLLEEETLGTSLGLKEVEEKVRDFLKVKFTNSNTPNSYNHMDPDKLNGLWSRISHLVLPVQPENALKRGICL

Example cases with answers are listed next.
Compound | Endpoint label | Observed value
C[C@@H]1NC(=O)[C@@]23C(=O)N[C@@H](Cc4ccccc4)C2[C@H](C)[C@@]2(C)O[C@H]2C3/C=C/C/C=C\CNC(=O)[C@@H]2CCCN2C1=O (some centres undefined) | composite z-score | -0.313
CCCNC(=O)[C@@H]1c2ccccc2C(=O)N(C(C)C)[C@H]1c1ccc(CO)cc1 | composite z-score | 0.625
Cc1ccc(S[C@]2(C(=O)NCCCN(C)C)CC(=O)N(C3CCCCC3)[C@@H]2c2ccc(CO)cc2)cc1 | composite z-score | -0.549
Cc1cc(C)cc(N2C(=O)CSC2c2cccc([N+](=O)[O-])c2)c1 (centres undefined) | composite z-score | 0.516
COCCCNC(=O)[C@]1(CCS(=O)(=O)c2ccccc2)N=C(c2ccc(OCCCO)cc2)O[C@@H]1c1ccccc1N=[N+]=[N-] | composite z-score | -0.342
COC(=O)[C@@]1(Cc2ccccc2)[C@H]2c3cc(C(=O)N(C)C)n(CCc4ccc(O)c(OC)c4)c3C[C@H]2CN1C(=O)c1ccccc1 | composite z-score | 0.279
C=CC[C@]1(C(=O)NCCN2CCOCC2)N=C(c2ccc(OCCCO)cc2)O[C@H]1c1ccccc1CN=[N+]=[N-] | composite z-score | 0.554
CC[C@H]1C2=C3C(CC[C@H]4C(OCc5ccc(F)cc5C(F)(F)F)OC[C@](C)([C@@H]34)N(C(=O)OC(C)(C)C)C2)C(COC)C1COC (some centres undefined) | composite z-score | -0.0575

Look at each compound and report its composite z-score.
1. COCCCNC(=O)[C@@]1(Sc2ccc(C)cc2)CC(=O)N(C2CCCCC2)[C@@H]1c1ccc(CO)cc1
2. C[N+](C)(C)CCCC[C@@H]1NC(=O)[C@H]2C[C@@H](C(=O)NCCCCCCN)[C@@H](c3ccc(O)cc3)N2C1=O
3. COc1ccc([Si](C)(C)[C@H]2[C@H](CC(=O)N(CCO)Cc3ccccc3)O[C@@]3(C(=O)N(Cc4cccc(N5CCOC5=O)c4)c4ccccc43)[C@@H]2C)cc1
4. Cc1ccc(S[C@]2(C(=O)NCC(F)(F)F)CC(=O)N(C3CCCCC3)[C@@H]2c2ccc(CO)cc2I)cc1
5. O=C1C2C=CC(C(O)c3ccccc3)N(Nc3ccccc3F)C2C(=O)N1c1ccccc1 (centres undefined)
6. O=C1NC(=O)C2C1C=CC(C(O)CCc1ccccc1)N2Nc1ccc(Cl)cc1Cl (centres undefined)
7. CCCC[C@@H]1C[C@H]1[C@@H](NC(=O)c1ccccc1)c1ccc(C(F)(F)F)cc1
8. CC(=O)c1ccc(C(O)C2C=CC3C(=O)N(c4ccccc4)C(=O)C3N2Nc2ccc(C#N)cc2)cc1 (centres undefined)

A:
[0.447, 0.567, 0.0843, 0.958, 0.178, 1.97, -0.309, 0.142]

Hi, could you look up composite z-score for each item in my list?
1. OCCCC1=CC(c2ccc(CN3CCCC3)cc2)N(Cc2sc3ccccc3c2Cl)CC1 (centres undefined)
2. COC(=O)[C@@]1(Cc2ccc(OC)cc2)[C@H]2c3cc(C(=O)N(C)C)n(C[C@H](O)CO)c3C[C@H]2CN1C(=O)c1ccccc1
3. O=C1C2C=CC(C(O)c3ccc(F)cc3)N(n3cnnc3)C2C(=O)N1Cc1ccccc1 (centres undefined)
4. CCC[C@@H]1C[C@@]1(CCC)[C@@H](NC(=O)OCc1ccccc1)c1ccc(-c2ccccc2)cc1
5. C[C@@H]1ON(c2ccc(C(=O)OC(C)(C)C)cc2)[C@H](c2ccc(O)cc2)[C@H]1C(=O)N1C(=O)OC[C@H]1Cc1ccccc1
6. COC(=O)C(CC#Cc1ccc2c(c1)[C@]1(C(=O)N2)[C@H](C(=O)N2CCN(c3ncccn3)CC2)[C@H]2C(=O)O[C@H](c3ccccc3)[C@H](c3ccccc3)N2[C@@H]1c1ccc(OCCO)cc1)C(=O)OC

A:
1: -0.0337; 2: 2.07; 3: 0.419; 4: -0.143; 5: 0.848; 6: 0.624

I have 2 compounds here; please give me composite z-score for each one.
1. O=C(N1CCCCC1)[C@@]1(CCS(=O)(=O)c2ccccc2)COC(c2ccc(OCCCO)cc2)=N1
2. CC(C)(C)OC(=O)CC[C@]1(C(=O)NCC(O)CO)N=C(c2ccc(OCCCO)cc2)O[C@H]1c1ccccc1 (some centres undefined)

A:
[1.51, 1.93]

Provide composite z-score for all items below, preserving their order.
1. C=C(C)C1CCC(C(O)C2C=CC3C(=O)N(C)C(=O)C3N2N2CCCCC2)CC1 (centres undefined)
2. COCCOC(=O)N1C(=O)[C@@]2(c3cc(C#Cc4ccc(OC)cc4)ccc31)[C@H](C(=O)Nc1nc3ccccc3s1)[C@H]1C(=O)O[C@H](c3ccccc3)[C@H](c3ccccc3)N1[C@@H]2c1ccc(OCCO)cc1

A:
1. 0.555
2. 0.179

All figures here come from PubChem BioAssay.
